The reader will find reported self-cleavage values listed item by item below.
B1: HDV Ribozyme (parent)
chain: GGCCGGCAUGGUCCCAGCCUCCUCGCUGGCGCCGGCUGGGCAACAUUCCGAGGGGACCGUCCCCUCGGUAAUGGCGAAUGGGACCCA

- Variants of: B1
- ASSAY_REMARKS: self-cleavage, relative activity (ratio to wild type); higher = more cleavage; co-transcriptional
Just the number, please, no unit attached.

G17A C84A = 0.807
C4G A71C = 0.192
C15A A70G = 0.755
G28C G35U = 0.0997
C19G U27C = 0.0875

Query string: For the variant C33U G55A , what self-cleavage is on record?
Result string: 0.972

Query string: Queued: G6C G39U
Result string: 0.108

Query string: Queued: G10A G82U
Result string: 0.36

Query string: Queued: G1C C41A
Result string: 0.123

Query string: Queued: G52A C85U
Result string: 0.923
